target: PDGF-A (human) (UniProt P04085); assay: flow cytometry, yeast display; conditions: 10 mM HEPES pH 7.9, 125 mM NaCl, 25 mM KCl, 1 mM MgCl2; F-EMSA at room temperature for 2 h, 5% PAGE at 4 C; flow cytometry in the same buffer
Recorded endpoint: Kd (µM)

• CAGAGCAGGGCGCCGTGTCGCATAGTGTTGTCACTCCCCTGGAGGTCCATGCGAAATATG [hPAap1] = 4
